The reported measurements were obtained from the RNAGym collection of RNA variant scans (doi:10.7554/elife.80360).

B1: Twister Ribozyme (parent)
chain: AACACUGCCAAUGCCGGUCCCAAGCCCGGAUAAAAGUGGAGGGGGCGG

- Variants of: B1
- MEASUREMENT NOTES: self-cleavage, relative activity (ratio to wild type); higher = more cleavage; co-transcriptional
Listed next: entries and their corresponding self-cleavage.
# answer = number (no unit)

Reference set (5 entries):
C8A C15U    0.365
G36A G47C    0.234
C9A A40G    0.129
G7U G41C    0.111
A4U G44U    0.146

// query For the variant A23U G47A , report self-cleavage.
// result 0.245

// query For the variant C3G C26U , report self-cleavage.
// result 0.137

// query For the variant A34C G48U , report self-cleavage.
// result 0.21

// query For the variant C14U G41U , report self-cleavage.
// result 0.719

// query For the variant C3G A33G , report self-cleavage.
// result 0.483

// query For the variant G29C A30U , report self-cleavage.
// result 1.1
